Data origin: ChEMBL document CHEMBL1137383

Would you mind telling me the reported Activity of each entry?
Target: Amine oxidase [copper-containing] 3 (Homo sapiens)
Sequence (whole entry): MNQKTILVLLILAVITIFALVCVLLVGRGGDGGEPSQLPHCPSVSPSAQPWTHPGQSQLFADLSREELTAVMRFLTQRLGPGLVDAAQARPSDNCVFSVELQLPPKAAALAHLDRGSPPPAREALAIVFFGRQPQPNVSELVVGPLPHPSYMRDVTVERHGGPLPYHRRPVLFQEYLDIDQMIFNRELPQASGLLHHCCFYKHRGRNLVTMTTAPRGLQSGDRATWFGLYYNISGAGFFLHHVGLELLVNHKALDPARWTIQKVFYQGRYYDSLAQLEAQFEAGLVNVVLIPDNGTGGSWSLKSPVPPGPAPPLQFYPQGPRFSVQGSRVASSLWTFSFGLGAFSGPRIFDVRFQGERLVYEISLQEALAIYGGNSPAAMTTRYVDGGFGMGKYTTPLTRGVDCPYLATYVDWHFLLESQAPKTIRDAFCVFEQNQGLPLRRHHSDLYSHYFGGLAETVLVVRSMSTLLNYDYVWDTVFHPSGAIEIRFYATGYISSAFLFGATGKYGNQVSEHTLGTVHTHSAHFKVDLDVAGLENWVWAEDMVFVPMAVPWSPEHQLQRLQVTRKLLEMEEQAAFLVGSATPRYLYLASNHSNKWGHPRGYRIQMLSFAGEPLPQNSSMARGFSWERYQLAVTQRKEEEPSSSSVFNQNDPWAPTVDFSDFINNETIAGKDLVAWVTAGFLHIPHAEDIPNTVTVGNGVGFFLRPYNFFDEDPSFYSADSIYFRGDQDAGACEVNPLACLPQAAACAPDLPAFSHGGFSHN
Experiment: Activity of human SSAO measured as hydrogen peroxide production at 1 mM relative to benzylamine oxidation
Assay type: functional
Answers are plain numbers, in %.

Below are some molecules; for each one, tell me its Activity.
1. NCc1cccc([N+](=O)[O-])c1O
2. NCc1cccc(CNC(=O)c2ccccc2)c1
3. CC(=O)N[C@H](C(=O)NCc1cccc(CN)c1)c1ccccc1
4. NCCc1ccc(O)c(O)c1
5. NCc1ccc(-c2ccccc2)cc1
6. NCc1cccc(CNC(=O)c2ccc(O)cc2)c1
7. CC(=O)NCc1cccc(CN)c1
8. NCCCCc1ccccc1

Result:
1: 0.11; 2: 17; 3: 2; 4: 0; 5: 0; 6: 5; 7: 3; 8: 166

###

molecular target: Amine oxidase [copper-containing] 3 (Homo sapiens) (UniProt Q16853); test: Activity of human SSAO measured as hydrogen peroxide production at 1 mM relative to benzylamine oxidation; type: functional
assay.endpoint: Activity (%)
Numbers only, in %.

Reference set (3 entries):
smiles.code | Activity, %
NCc1c(O)ccc2ccccc12 | 0
NCc1ccccc1F | 1.3
NCc1ccc(C(F)(F)F)cc1 | 4

Below are some compounds; for each one, tell me its Activity.
1. NCCCc1ccccc1
2. COc1ccc(CN)c2ccccc12
3. NCCc1ccccc1

Result:
1. 44
2. 0.7
3. 21

Below are some compounds; for each one, tell me its Activity.
1. CC(C)(C)c1ccc(CN)cc1
2. NCc1ccc(F)cc1
3. NCc1cccc(CNC(=O)c2ccc(O)cc2O)c1

Result:
0
134
0

###

Would you mind telling me the reported Activity of each entry?
Target: Amine oxidase [copper-containing] 3 (Mus musculus)
Sequence (whole entry): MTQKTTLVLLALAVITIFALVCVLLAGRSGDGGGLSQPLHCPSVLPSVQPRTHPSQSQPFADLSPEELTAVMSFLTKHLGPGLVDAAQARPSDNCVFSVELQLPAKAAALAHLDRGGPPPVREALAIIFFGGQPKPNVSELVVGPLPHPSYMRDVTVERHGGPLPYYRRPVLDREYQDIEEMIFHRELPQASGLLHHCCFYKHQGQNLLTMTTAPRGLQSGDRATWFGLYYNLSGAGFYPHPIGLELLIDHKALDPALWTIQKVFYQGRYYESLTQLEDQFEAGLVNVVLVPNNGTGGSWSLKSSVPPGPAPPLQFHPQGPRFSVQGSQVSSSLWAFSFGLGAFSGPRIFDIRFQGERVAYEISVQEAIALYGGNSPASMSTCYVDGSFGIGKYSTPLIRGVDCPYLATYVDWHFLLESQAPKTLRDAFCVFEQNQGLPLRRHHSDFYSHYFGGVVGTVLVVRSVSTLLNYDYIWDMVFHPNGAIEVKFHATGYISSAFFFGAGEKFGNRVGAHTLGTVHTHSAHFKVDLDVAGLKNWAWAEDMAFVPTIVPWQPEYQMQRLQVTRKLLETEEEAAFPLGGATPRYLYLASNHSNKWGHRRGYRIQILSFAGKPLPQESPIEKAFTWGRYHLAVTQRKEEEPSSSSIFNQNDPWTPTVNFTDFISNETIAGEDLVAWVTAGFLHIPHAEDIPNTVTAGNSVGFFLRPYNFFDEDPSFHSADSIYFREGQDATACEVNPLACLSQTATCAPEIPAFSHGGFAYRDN
Experiment: Activity of mouse SSAO measured as hydrogen peroxide production at 100 uM relative to benzylamine oxidation
Assay type: functional
Numbers only, in %.

Below are some compounds; for each one, tell me its Activity.
1. NCc1cccc(CNC(=O)c2ccc(O)cc2O)c1
2. NCc1ccc(OC(F)(F)F)cc1OC(F)(F)F

Result:
[0, 0]

Below are some compounds; for each one, tell me its Activity.
1. NCc1c(O)ccc2ccccc12
2. C=CCOC(=O)NCc1cccc(CN)c1
3. CCCCc1ccc(CN)cc1
4. NCCc1ccc(O)c(O)c1
5. COc1ccc(CN)c2ccccc12

Result:
[0, 49, 24, 0, 0]

Query: Return reported Activity for target or system Amine oxidase [copper-containing] 3 (Mus musculus), item NCc1ccccc1F .
Result: 44

###

target: Amine oxidase [copper-containing] 3 (Homo sapiens); test: Activity of human SSAO measured as hydrogen peroxide production at 1 mM relative to benzylamine oxidation; format: functional
Would you mind telling me the reported Activity of each entry?
One number for each entry, in %.

smiles.code | test.target | Activity (%)
NCc1ccc(O)c(Br)c1 | Amine oxidase [copper-containing] 3 (Homo sapiens) | 0
COc1cc(CN)cc(OC)c1 | Amine oxidase [copper-containing] 3 (Homo sapiens) | 0
NCc1ccc(C(=O)O)cc1 | Amine oxidase [copper-containing] 3 (Homo sapiens) | 0
CCC(=O)NCc1cccc(CN)c1 | Amine oxidase [copper-containing] 3 (Homo sapiens) | 4
NCc1cccc(CNC(=O)CI)c1 | Amine oxidase [copper-containing] 3 (Homo sapiens) | 38

Below are some molecules; for each one, tell me its Activity.
1. COc1cccc2[nH]cc(CCN)c12
2. Cc1ccc(S(=O)(=O)NCc2cccc(CN)c2)cc1
3. NCc1ccc(OC(F)(F)F)cc1OC(F)(F)F

Result:
1. 0
2. 12
3. 0

###

Would you mind telling me the reported Activity of each entry?
molecular target: Amine oxidase [copper-containing] 3 (Homo sapiens) (UniProt Q16853); assay: Activity of human SSAO measured as hydrogen peroxide production at 1 mM relative to benzylamine oxidation; type: functional
Numbers only, in %.

compound | units.of.measure | Activity
COc1ccc(CN)cc1 | % | 0
NCc1ccc(CN)cc1 | % | 0

Below are some compounds; for each one, tell me its Activity.
1. COc1ccc(CCN)cc1OC
2. COc1cc(F)cc(CN)c1

Result:
1. 0
2. 2.53

Below are some compounds; for each one, tell me its Activity.
1. NCc1ccccc1
2. CC(N)c1cccc2ccccc12 (centres undefined)
3. NCc1cccc(CNC(=O)c2ccc(Br)cc2)c1
4. CC(C)c1ccc(CN)cc1
5. NCc1ccc(OC(F)(F)F)cc1

Result:
100
11
16
0
0

###

Would you mind telling me the reported Activity of each entry?
biological target: Amine oxidase [copper-containing] 3 (Homo sapiens); assay: Activity of human SSAO measured as hydrogen peroxide production at 1 mM relative to benzylamine oxidation; assay type: functional
Answers are plain numbers, in %.

Reference set (2 entries):
smiles.code | test.target | recorded.result
NCc1cccc(CN)c1 | Amine oxidase [copper-containing] 3 (Homo sapiens) | 0
CCCCc1ccc(CN)cc1 | Amine oxidase [copper-containing] 3 (Homo sapiens) | 5

With those in mind, consider the next compound.
Query: For the compound NCc1ccc(OCc2ccccc2)cc1 , report Activity.
Result: 0

###

biological target: Amine oxidase [copper-containing] 3 (Mus musculus) (UniProt O70423); assay: Activity of mouse SSAO measured as hydrogen peroxide production at 100 uM relative to benzylamine oxidation; format: functional
assay.endpoint: Activity

Reference set (5 entries):
molecule | test.target | recorded.result
NCc1ccc(-c2ccccc2)cc1 | Amine oxidase [copper-containing] 3 (Mus musculus) (UniProt O70423) | 3.77%
NCc1ccc(O)c(Br)c1 | Amine oxidase [copper-containing] 3 (Mus musculus) (UniProt O70423) | 0%
NCc1cccc(CNC(=O)c2ccc(Br)cc2)c1 | Amine oxidase [copper-containing] 3 (Mus musculus) (UniProt O70423) | 46%
CC(N)c1cccc2ccccc12 (centres undefined) | Amine oxidase [copper-containing] 3 (Mus musculus) (UniProt O70423) | 0%
CCc1ccc(CN)cc1 | Amine oxidase [copper-containing] 3 (Mus musculus) (UniProt O70423) | 26%

Below are some molecules; for each one, tell me its Activity.
1. NCc1ccc(C(F)(F)F)cc1
2. NCc1ccc(F)cc1

Result:
35%
127%

Below are some molecules; for each one, tell me its Activity.
1. NCc1cccc(CNC(=O)CI)c1
2. NCc1cccc(CNC(=O)c2ccccc2)c1
3. NCc1ccc(C(=O)O)cc1
4. COc1cc(F)cc(CN)c1
5. CC(=O)NCc1cccc(CN)c1
6. NCc1cccc(CN)c1
7. COc1ccc(CCN)cc1OC
8. NCCCCc1ccccc1

Result:
1. 61%
2. 58%
3. 4.06%
4. 4.86%
5. 16%
6. 0%
7. 3.8%
8. 71%

Below are some molecules; for each one, tell me its Activity.
1. NCCCc1ccccc1
2. NCc1ccc(OCc2ccccc2)cc1
3. CC(C)c1ccc(CN)cc1
4. NCc1ccc(CN)cc1

Result:
["40%", "0%", "0%", "0%"]

Below are some molecules; for each one, tell me its Activity.
1. CC(C)(C)c1ccc(CN)cc1
2. CC(=O)N[C@H](C(=O)NCc1cccc(CN)c1)c1ccccc1
3. NCc1ccccc1
4. Cc1ccc(CN)cc1F
5. NCc1cccc([N+](=O)[O-])c1O

Result:
1%
13%
100%
133%
5.47%
